- METHOD: gradient 5% acetonitrile 3 min, to 50% in 2 min, to 85% in 15 min, held 3 min, 100 µL/min
- EXPERIMENTAL PARAMETERS: column: Zorbax Extend-C18 2.1 x 50 mm; eluents: water / acetonitrile, 0.1% formic acid
RP-LC retention time values, listed per item

{"columns": ["COMPOUND", "RP-LC retention time (s)"],
 "data": [
  ["Cc1cc2c(cc1S(=O)(=O)N1CCCC1C(=O)NC1CCCCCCC1)OC(C)C(=O)N2 (centres undefined)", 857],
  ["Cc1nn(-c2ccccc2)c(C)c1S(=O)(=O)N1CCC(C(=O)Nc2ccc(F)cc2)CC1", 948],
  ["Cn1cc2c(n1)c(=O)n(Cc1ccccc1)c(=O)n2CC(=O)NCc1ccccc1", 769],
  ["O=C(c1cccc(Nc2c(-c3ccc(Cl)cc3)nc3cnccn23)c1)N1CCOCC1", 719],
  ["CCOC(=O)c1c(C)[nH]c(CCC(=O)NC(C)C)c1C", 729],
  ["CCc1ccccc1NC(=O)N1CCC(c2nc(C(=O)N3CCCC3)c(C)o2)CC1", 782],
  ["O=C(NC1CC1)C1CCN(Cc2cc3ccccc3n2Cc2ccc(F)cc2)CC1", 701],
  ["O=C(c1ccc2c(c1)CCCN2S(=O)(=O)c1ccccc1)N1CCCC1", 852],
  ["Cc1cc(OCC(=O)Nc2ccc3c(c2)OCO3)nc(N2CCN(c3ccccc3)CC2)n1", 776],
  ["Cc1cc(C)nc(SCc2nnc(SCC(=O)Nc3nccs3)o2)n1", 600],
  ["CCOc1ccc(NC(=O)c2oc3cc(Br)ccc3c2C)c2cccnc12", 800],
  ["Cc1cccc(CNS(=O)(=O)c2ccc(-c3c(C)noc3C)cc2)c1", 983],
  ["Cc1ccc(S(=O)(=O)N2CCC3(CC2)NCCN=C3NCc2ccccc2Cl)cc1C", 768],
  ["CCN1C(=O)c2cc(C(=O)NCc3ccccc3Cl)nn2CC1(C)C(=O)NC1CCCC1 (centres undefined)", 817],
  ["CCc1nc2cc(-c3noc(Cc4ccccc4Br)n3)ccc2o1", 1220],
  ["COc1ccc(-c2noc(Cc3nnc(-c4cccc(C)c4)o3)n2)cc1F", 1040],
  ["CCN1CCn2cc(S(=O)(=O)N3CCN(c4ccccc4)CC3)cc2C1=O", 684],
  ["CC1CCN(c2nc(-c3ccc(Cl)cc3)nc3ccccc23)CC1", 947],
  ["Cc1ccc(-c2cn3ccn(-c4cccc(F)c4)c(=O)c3n2)cc1C", 873]
]}

###

- METHOD: gradient 5% acetonitrile 3 min, to 50% in 2 min, to 85% in 15 min, held 3 min, 100 µL/min
- EXPERIMENTAL PARAMETERS: column: Zorbax Extend-C18 2.1 x 50 mm; eluents: water / acetonitrile, 0.1% formic acid
Lab note: cut-off is 800 s. Strictly less in RP-LC retention time is criterion met. Exactly 800 s or more is criterion not met.

{"columns": ["COMPOUND", "ANSWER LABEL"],
 "data": [
  ["CCc1nc2cc(-c3noc(-c4nn(C)c5ccccc45)n3)ccc2o1", "criterion not met"],
  ["Cn1c(C(=O)Nc2ccc(F)cc2Cl)cc2c(=O)oc3ccccc3c21", "criterion not met"],
  ["CCN1CCCCc2cc(C(=O)NC(C)(C)C)sc21", "criterion not met"],
  ["CC(=O)N1CCc2sc(C(=O)N3CCN(c4cc(C)ccc4C)CC3)cc2C1", "criterion not met"],
  ["CC(=O)N1CCc2cc(C(=O)N3CCCCCC3)ccc21", "criterion met"],
  ["Nc1cc(C2CCN(C(=O)Nc3cc(F)c(F)c(F)c3)CC2)no1", "criterion met"],
  ["CCOc1ccc(CCNC(=O)C2CCCN(C(=O)c3cc4sccc4n3CC)C2)cc1OCC (stereo not given)", "criterion not met"],
  ["COc1ccccc1-c1nc(-c2ccc3c(c2)nnn3CCN2CCCCC2)no1", "criterion met"],
  ["Brc1ccc(OCc2nc3c4ccccc4ncn3n2)cc1", "criterion not met"],
  ["CC(Oc1ccc(Cl)cc1)C(=O)N1CCN(c2cc(-c3ccccc3)[nH]n2)CC1 (stereo not given)", "criterion not met"],
  ["O=C(CCn1c(N2CCCCC2)nc2ccsc2c1=O)N1CCN(c2ccccn2)CC1", "criterion met"],
  ["CC1CCc2nn(CC(=O)Nc3c(F)c(F)c(F)c(F)c3F)cc2C1 (stereo not given)", "criterion not met"],
  ["COc1cc(Cl)ccc1-c1nc(-c2cccc(-c3ccn[nH]3)c2)no1", "criterion not met"],
  ["OC[C@@H]1CN(Cc2ccncc2F)C[C@H]1c1nc(C2CC2)no1", "criterion met"],
  ["COc1cc(-c2noc(Cc3nnc(-c4cc(C)cc(C)c4)o3)n2)cc(OC)c1OC", "criterion not met"],
  ["CCC(C)NC(=O)Cn1c(=O)c2cnc(-c3ccc(C)cc3)nc2n(C)c1=O (stereo not given)", "criterion not met"],
  ["O=C(C1COc2ccccc2O1)N1CCCn2nc(-c3cccs3)cc2C1 (stereo not given)", "criterion not met"]
]}

###

RP-LC retention time values, listed per item
- METHOD: gradient 5% acetonitrile 3 min, to 50% in 2 min, to 85% in 15 min, held 3 min, 100 µL/min
- EXPERIMENTAL PARAMETERS: column: Zorbax Extend-C18 2.1 x 50 mm; eluents: water / acetonitrile, 0.1% formic acid

{"columns": ["MOLECULE", "RP-LC retention time, s"],
 "data": [
  ["Cn1cc(S(=O)(=O)N2CCC(C(=O)NCc3ccc(F)cc3)CC2)cc1C(=O)N1CCCC1", 722],
  ["CCc1noc(-c2ccc(-n3ncc(C(=O)NC4CC4)c3C)nc2)n1", 792],
  ["O=C(CC1(O)C(=O)Nc2c(Cl)ccc(Cl)c21)c1ccc(Cl)cc1Cl (centres undefined)", 879],
  ["CCCCN1CCN(C(=O)CCC2CCCN(c3cc(NC4CC4)ncn3)C2)CC1 (centres undefined)", 565],
  ["O=c1c2c([nH]c3ccc(Cl)cc13)CCN(Cc1ccc(F)cc1)C2", 620],
  ["O=C(C1CCN(c2nnc(-c3ccccc3)o2)CC1)N1CCN(c2ccccn2)CC1", 602],
  ["O=C(c1ccccc1)N1CCC(C(=O)N2CCc3ccccc32)CC1", 750],
  ["Cc1ccccc1CNC(=O)C1(C)CCCN(C(=O)Nc2ccc(Br)cc2)C1 (centres undefined)", 1020],
  ["Cn1nc(C(=O)N2CCC(C(=O)N3CCCC3)CC2)c2c1CCN(C(=O)Cc1ccc(F)cc1)C2", 679],
  ["COc1ccc(C)cc1NC(=O)C1CCN(c2nc(C3CCC3)nc3csc(C)c23)CC1", 847],
  ["CC(C)c1cccc(NC(=O)Cn2ccc3sccc3c2=O)c1", 878],
  ["CC(C)CNC(=O)CN1C(=O)C2CCCCN2c2ccc(S(=O)(=O)N(C)C)cc21 (centres undefined)", 698],
  ["c1cncc(-c2nc3ccccc3s2)c1", 873],
  ["CNC(=O)c1ccc(-c2nc3cc(NS(=O)(=O)c4cccc(Cl)c4)ccc3n2C)cc1", 653],
  ["CCC(C)NC(=O)C1CCCN(C(=O)Nc2ccc(NC(=O)Nc3ccccc3)cc2)C1 (centres undefined)", 730],
  ["CCN1CCN(c2cc(C)c3cc(NC(=O)CCC4CCCC4)ccc3n2)CC1", 620],
  ["CN(CC1CCOC1)C(=O)Nc1cccc(F)c1 (centres undefined)", 660],
  ["Cc1cc(S(=O)(=O)N2[C@H]3CC[C@@H]2c2cnc(-c4ccccc4)nc2C3)ccc1F", 1090],
  ["CCc1nc2ccccc2c(=O)n1Cc1noc(-c2cc(OC)c(OC)c(OC)c2)n1", 919]
]}

###

- METHOD: gradient 5% acetonitrile 3 min, to 50% in 2 min, to 85% in 15 min, held 3 min, 100 µL/min
- EXPERIMENTAL PARAMETERS: column: Zorbax Extend-C18 2.1 x 50 mm; eluents: water / acetonitrile, 0.1% formic acid

{"columns": ["MOLECULE", "RP-LC retention time"],
 "data": [
  ["Cc1ccc(NC(=O)N2CCC(CN3CCCC(C)C3)CC2)cc1C (stereo not given)", "645 s"],
  ["Cc1nc(Nc2ccccn2)sc1C(=O)N1CCSCC1", "703 s"],
  ["Cn1c(=O)c(N2CCCC(C(=O)NCCCN3CCC(N4CCCCC4)CC3)C2)nc2cccnc21 (stereo not given)", "568 s"],
  ["CCc1noc(NC(C)=O)c1-c1ccc(C)c(S(=O)(=O)Nc2ccc(C)cc2Br)c1", "919 s"],
  ["CC(C)CC(=O)N1CCCC(COc2ccc(C(=O)NC(C)C)cc2)C1 (stereo not given)", "827 s"],
  ["O=C(NCCc1ccco1)C1CCCN(c2ccc(=O)n(-c3ccc(F)cc3)n2)C1 (stereo not given)", "773 s"],
  ["CCc1c(C)nc2nc(-c3ccccc3)nn2c1NCc1ccc(C)cc1", "996 s"],
  ["Cc1cc(C)c(-c2csc(NC(=O)c3ccccc3[N+](=O)[O-])n2)c(C)c1", "1070 s"],
  ["CCN1C(=O)COc2ccc(-c3noc(CNC(=O)C(c4ccccc4)c4ccccc4)n3)cc21", "975 s"],
  ["Cc1ccc(S(=O)(=O)N2CC(=O)N(c3ccccc3F)C(C)(C(=O)NCCC(C)C)C2)cc1 (stereo not given)", "1020 s"],
  ["CC(C)n1cnc(S(=O)(=O)N2CCCC(C(=O)NCc3ccc(Cl)cc3)C2)c1 (stereo not given)", "799 s"],
  ["COc1ccc(CC(=O)NCC2(CO)CC2)cc1OC", "582 s"],
  ["CCCCc1ccc(NC(=O)CSc2cc(N3CCN(c4ccccc4OC)CC3)ncn2)cc1", "1310 s"],
  ["COc1ccc(CNC(=O)c2sc(-c3cn(C(C)C)c4ncccc34)nc2C)cc1", "1030 s"],
  ["O=C1CCN(C(=O)C2CCN(C(=O)C3CCC3)CC2)CCCCCCN1", "626 s"],
  ["COc1ncccc1CNC(=O)CCc1c(C)nn(C)c1C", "580 s"],
  ["O=C(c1ccccc1)N1CCN(S(=O)(=O)c2cc3c4c(c2)CCC(=O)N4CCC3)CC1", "789 s"],
  ["Cc1cc(Cl)ccc1NC(=O)Cn1cnc2nc3c(cc2c1=O)CCCC3", "770 s"],
  ["CCOc1cc(=O)n2c(c1C(=O)Nc1cc(F)cc(F)c1)CCCC2", "794 s"],
  ["Cc1ccn2cc(C(=O)NCc3ccccc3C)nc2c1", "708 s"]
]}
